# Tested on: gene editing with Cas9
# TEST_DETAILS: Screen of 322 new SSAP proteins, gene editing activity with Cas9 (Table 5)
# Assay type: cell-based
# ASSAY_CONTEXT: normalized

MOLECULE	Cas9 with SSAP activity (normalized)
SSAP_183: SEQ ID NO: 352; Clostridium sp. CAG: 277 (protein, listed as Clostridium sp.) DFKEELAAKAEVAATTKKSDGVKLTKNMSIVDMIKALEPEIKRALPSVLTPERFVRMALTAVNNTPALAQCTPMSFIAALMNAAQLGLEPNTPLGQAYLIPYKNKKKGVVECQFQIGYKGMIDLVYRNDNVQTIQAHIVRENDHFEYELGLESKLRHIPAMEGRGEMMYVYALFKLTNGGYGFEVLNKEAVIAHAERYSPSYDGFSPWKTDFESKGLELFLILDLSSKQSGK	−0.351
SSAP_273: SEQ ID NO: 442; Virgibacillus (multispecies) (protein, listed as Virgibacillus sp.) ATNDSVKNQIANKNQGSNQVNPNNLGLKQLLSTPTMRKKFDEVLDKKAPQFMSSLLNLYSNDSYLQKAEPMSVVTSALVAATLDLPIDKNLGYAWIVPYGGKAQFQLGYKGYIQLALRTGQYRNINVIEVYEGELKSFNRLTEEMELDFEQKQSDKVIGYTGYFELINGFRKTVYWSKEEIEKHKKRFSKSDFGWKKDWDAMAKKTVIRNMLNKWGILSIDMQKGIVEDNKDPIEKANEFDEQDIIEADFSEVNDDQEIDFSDAQ	−0.724
